Data origin: patent US10058487B2

assay: Determination of the water solubility by UV/visible spectroscopy; format: physicochemical; conditions: 23 °C, thermodynamic from solid; saturated solution in deionized water, 23±2° C.; read-out: Solubility
Catalogue of molecules with associated solubility
# include the unit after the value

Guide cases for solubility, answers given:
CN(C)c1ccc(C#N)cc1 [4-Dimethylaminobenzonitrile]    278 µg/mL
COCCNC(=O)c1ccc(N(C)C)cc1    2670 µg/mL
CCCCC(CC)COC(=O)c1ccc(N(C)C)cc1 (stereo not shown) [EHA, 2-Ethylhexyl 4-dimethylaminobenzoate]    26 µg/mL
CN(C)c1ccc(C(N)=O)cc1 [4-Dimethylaminobenzamide]    427 µg/mL
CCCNC(=O)c1ccc(N(C)C)cc1 [4-Dimethylamino-N-propylbenzamide]    680 µg/mL
CCCCOCCOC(=O)c1ccc(N(C)C)cc1    35 µg/mL

Please report the measured solubility for CCOC(=O)c1ccc(N(C)C)cc1 [Ethyl 4-dimethylaminobenzoate] 36 µg/mL
